Molecular target: Muscarinic acetylcholine receptor M1 (Homo sapiens)
Sequence (P11229 whole entry): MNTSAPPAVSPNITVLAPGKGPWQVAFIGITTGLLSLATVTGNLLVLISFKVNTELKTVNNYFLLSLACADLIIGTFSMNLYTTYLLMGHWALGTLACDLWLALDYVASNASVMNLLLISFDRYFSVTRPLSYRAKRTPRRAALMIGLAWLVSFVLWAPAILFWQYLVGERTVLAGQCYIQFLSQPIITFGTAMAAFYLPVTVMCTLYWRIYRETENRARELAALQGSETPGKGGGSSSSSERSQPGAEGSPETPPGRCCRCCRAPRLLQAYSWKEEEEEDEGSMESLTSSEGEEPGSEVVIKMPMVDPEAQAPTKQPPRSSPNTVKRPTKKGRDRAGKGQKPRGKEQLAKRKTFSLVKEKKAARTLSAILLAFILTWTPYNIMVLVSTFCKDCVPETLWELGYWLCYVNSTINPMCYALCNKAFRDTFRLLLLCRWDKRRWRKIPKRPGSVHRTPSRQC
Test: Antagonist activity at muscarinic M1 receptor (unknown origin) expressed in HEK293T cells assessed as inhibition of UNC1679 calcium mobilization
READOUT: IC50 (µM)
Report the figure in µM without appending any unit label.

stdin: Fill in the recorded IC50 for this compound, with Muscarinic acetylcholine receptor M1 (Homo sapiens) as test system: O=C(c1ccc(C(=O)N2CCC(N3CCCC3)CC2)c(Nc2ccccc2)c1)N1CCC(N2CCCC2)CC1
stdout: 3.5

----------
Target: Lethal(3)malignant brain tumor-like protein 3 (Homo sapiens)
Test: Inhibition of L3MBTL3 (unknown origin) using H4K20me2 as substrate after 30 mins by LNCE-TR-FRET assay
READOUT: IC50 (µM)
Report the figure in µM without appending any unit label.

stdin: Endpoint output: IC50 of O=C(c1ccc(C(=O)N2CCC(N3CCCC3)CC2)c([N+](=O)[O-])c1)N1CCC(N2CCCC2)CC1 . Value?
stdout: 0.088

stdin: Endpoint output: IC50 of O=C(c1ccc(C(=O)N2CC3CCC(C2)C3N2CCCC2)cc1)N1CCC(N2CCCC2)CC1 (stereo not given) . Value?
stdout: 0.092

stdin: Endpoint output: IC50 of O=C(c1ccc(C(=O)N2CC(N3CCCC3)C2)cc1)N1CCC(N2CCCC2)CC1 . Value?
stdout: 0.3

stdin: Endpoint output: IC50 of O=C(c1ccc(C(=O)N2CCC3(CCNC3)C2)cc1)N1CCC(N2CCCC2)CC1 (stereo not given) . Value?
stdout: 2.2

stdin: Endpoint output: IC50 of O=C(c1ccc(C(=O)N2CCC(N3CCC3)CC2)cc1)N1CCC(N2CCC2)CC1 . Value?
stdout: 0.35

stdin: Endpoint output: IC50 of O=C(c1ccc(C(=O)N2CCC(N3CCOCC3)CC2)cc1)N1CCC(N2CCCC2)CC1 . Value?
stdout: 1.1

stdin: Endpoint output: IC50 of O=C(c1ccc(C(=O)N2CCC(N3CCCC3)CC2)cc1)N1CCC(C2CCCCC2)CC1 . Value?
stdout: 1.6

stdin: Endpoint output: IC50 of O=C(c1ccc(C(=O)N2CCC(N3CCCC3)CC2)c(Br)c1)N1CCC(N2CCCC2)CC1 . Value?
stdout: 0.074

More entries:
stdin: Endpoint output: IC50 of O=C(c1ccc2cc(C(=O)N3CCC(N4CCCC4)CC3)ccc2c1)N1CCC(N2CCCC2)CC1 . Value?
stdout: 0.45

stdin: Endpoint output: IC50 of O=C(c1ccc(C(=O)N2CCC(N3CCCC3)CC2)s1)N1CCC(N2CCCC2)CC1 . Value?
stdout: 0.068

----------
Target: Lethal(3)malignant brain tumor-like protein 3 (Homo sapiens, UniProt Q96JM7)
Sequence (Q96JM7 whole entry): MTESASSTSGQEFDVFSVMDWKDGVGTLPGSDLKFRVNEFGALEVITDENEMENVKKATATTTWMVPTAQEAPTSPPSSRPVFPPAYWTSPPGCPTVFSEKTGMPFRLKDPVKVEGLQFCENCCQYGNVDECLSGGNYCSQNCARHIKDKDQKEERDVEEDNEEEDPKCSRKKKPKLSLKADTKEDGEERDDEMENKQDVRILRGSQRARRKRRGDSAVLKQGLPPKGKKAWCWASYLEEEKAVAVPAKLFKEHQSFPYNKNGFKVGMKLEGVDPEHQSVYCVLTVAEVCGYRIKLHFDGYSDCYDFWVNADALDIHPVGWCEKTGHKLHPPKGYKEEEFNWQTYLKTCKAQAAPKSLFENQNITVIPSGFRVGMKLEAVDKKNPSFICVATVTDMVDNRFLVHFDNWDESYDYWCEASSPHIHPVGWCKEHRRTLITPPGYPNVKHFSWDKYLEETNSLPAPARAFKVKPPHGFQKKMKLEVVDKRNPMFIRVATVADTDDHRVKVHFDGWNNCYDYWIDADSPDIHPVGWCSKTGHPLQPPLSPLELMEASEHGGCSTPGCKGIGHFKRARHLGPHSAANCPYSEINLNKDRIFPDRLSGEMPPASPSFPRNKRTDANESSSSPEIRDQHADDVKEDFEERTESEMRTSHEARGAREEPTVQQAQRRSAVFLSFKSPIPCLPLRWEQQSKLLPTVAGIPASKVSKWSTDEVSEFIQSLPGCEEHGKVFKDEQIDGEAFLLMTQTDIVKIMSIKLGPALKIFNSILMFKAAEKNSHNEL
Assay: Inhibition of L3MBTL3 (unknown origin) using H4K20me2 as substrate after 30 mins by LNCE-TR-FRET assay
Quick reference: IC50 of the listed items.
Report the figure in nM without appending any unit label.

Sample records with IC50:
stdin: Endpoint output: IC50 of O=C(c1ccc(S(=O)(=O)N2CCC(N3CCCC3)CC2)cc1)N1CCC(N2CCCC2)CC1 . Value?
stdout: 97

stdin: Endpoint output: IC50 of O=C(c1ccc(C(=O)N2CCC(N3CCCC3)CC2)nc1)N1CCC(N2CCCC2)CC1 . Value?
stdout: 61

stdin: Endpoint output: IC50 of CN(C)C1CCN(C(=O)c2ccc(C(=O)N3CCC(N(C)C)CC3)cc2)CC1 . Value?
stdout: 8000

stdin: Endpoint output: IC50 of CN1CCCC1C1CCN(C(=O)c2ccc(C(=O)N3CCC(C4CCCN4C)CC3)cc2)CC1 (stereo not given) . Value?
stdout: 1900

More entries:
stdin: Endpoint output: IC50 of O=C(c1ccc(C(=O)N2CC3(CCNC3)C2)cc1)N1CCC(N2CCCC2)CC1 . Value?
stdout: 2700

----------
Molecular target: Lethal(3)malignant brain tumor-like protein 3 (Homo sapiens, UniProt Q96JM7)
Assay: Inhibition of L3MBTL3 (unknown origin) after 30 mins by AlphaScreen assay
Quick reference: IC50 of the listed items.
Report the figure in nM without appending any unit label.

Sample records with IC50:
stdin: Endpoint output: IC50 of Cc1cc(C(=O)N2CCC(N3CCCC3)CC2)c(C)cc1C(=O)N1CCC(N2CCCC2)CC1 . Value?
stdout: 210

stdin: Endpoint output: IC50 of O=C(c1cccc(Br)c1)N1CCC(N2CCCC2)CC1 . Value?
stdout: 4100

stdin: Endpoint output: IC50 of CCN1Cc2ccc(NC(=O)c3ccc(C(=O)N4CCC(C5CCCN5)CC4)cc3Nc3ccccc3)cc2C1 (configuration not stated) . Value?
stdout: 170

More entries:
stdin: Endpoint output: IC50 of O=C(c1cncc(Br)c1)N1CCC(N2CCCC2)CC1 . Value?
stdout: 3100

stdin: Endpoint output: IC50 of O=C(c1ccc(C(=O)N2CCC(N3CCCC3)CC2)nc1)N1CCC(N2CCCC2)CC1 . Value?
stdout: 110

stdin: Endpoint output: IC50 of O=C(c1ccc(C(=O)N2CCC(N3CCCC3)CC2)c(Cc2ccccc2)c1)N1CCC(N2CCCC2)CC1 . Value?
stdout: 48

stdin: Endpoint output: IC50 of O=C(c1ccc(C(=O)N2CCC3(CCNC3)C2)cc1)N1CCC(N2CCCC2)CC1 (configuration not stated) . Value?
stdout: 1800

stdin: Endpoint output: IC50 of CCN1Cc2ccc(NC(=O)c3ccc(C(=O)N4CCC(N5CCCC5)CC4)cc3)cc2C1 . Value?
stdout: 370

----------
Target: Lethal(3)malignant brain tumor-like protein 3 (Homo sapiens)
Experiment: Inhibition of L3MBTL3 (unknown origin) after 30 mins by AlphaScreen assay
READOUT: IC50 (nM)
Report the figure in nM without appending any unit label.

Sample records with IC50:
stdin: Endpoint output: IC50 of O=C(c1ccc(C(=O)N2CCC(N3CCCC3)CC2)c(Br)c1)N1CCC(N2CCCC2)CC1 . Value?
stdout: 120

stdin: Endpoint output: IC50 of O=C(c1ccc(C(=O)N2CC(N3CCCC3)C2)cc1)N1CCC(N2CCCC2)CC1 . Value?
stdout: 330

stdin: Endpoint output: IC50 of O=C(c1ccc(C(=O)N2CCC(N3CCCC3)CC2)cc1)N1CCC(N2CCCCCC2)CC1 . Value?
stdout: 270

stdin: Endpoint output: IC50 of O=C(c1ccc(C(=O)N2CCC(N3CCCC3)CC2)cc1)N1CCC(N2CCCCC2)CC1 . Value?
stdout: 230

stdin: Endpoint output: IC50 of O=C(c1ccc(C(=O)N2CCC(N3CCCC3)CC2)c(NCc2ccccc2)c1)N1CCC(N2CCCC2)CC1 . Value?
stdout: 39

More entries:
stdin: Endpoint output: IC50 of O=C(c1ccc2cc(C(=O)N3CCC(N4CCCC4)CC3)ccc2c1)N1CCC(N2CCCC2)CC1 . Value?
stdout: 690

----------
pIC50 data for MBT domain-containing protein 1 (Homo sapiens) follow.
pIC50: −log10 of the molar value.
READOUT: pIC50

stdin: Endpoint output: pIC50 of O=C(c1ccc(CN2CCC(N3CCCC3)CC2)cc1)N1CCC(N2CCCC2)CC1 . Value?
stdout: 5.09

stdin: Endpoint output: pIC50 of O=C(c1ccc(C(=O)N2CCC(C3CCCN3)CC2)cc1)N1CCC(C2CCCN2)CC1 (stereo unspecified) . Value?
stdout: 5.40

stdin: Endpoint output: pIC50 of O=C(c1ccc(C(=O)N2CCC(N3CCCC3)CC2)c(Cc2ccccc2)c1)N1CCC(N2CCCC2)CC1 . Value?
stdout: 5.17

stdin: Endpoint output: pIC50 of O=C(c1ccc(C(=O)N2CCC(N3CCCCC3)CC2)cc1)N1CCC(N2CCCCC2)CC1 . Value?
stdout: 5.31

stdin: Endpoint output: pIC50 of O=C(c1ccc(C(=O)N2CCC(N3CCCC3)CC2)cc1)N1CCC(C2CCCCC2)CC1 . Value?
stdout: 5.09

(I) O=C(c1ccc(C(=O)N2CCC(N3CCCC3)CC2)c2ccccc12)N1CCC(N2CCCC2)CC1
(II) O=C(c1ccc(C(=O)N2CCC(N3CCCC3)CC2)cc1)N1CCC(N2CCCCCC2)CC1
stdin: Endpoint returns whichever of I and II has the numerically higher pIC50. Reply briefly: the label of your chosen item.
stdout: I
(I: 5.24, II: 5.01)

Cited source for all entries: ChEMBL document CHEMBL2424619
